# experimental-target: rat lens aldose reductase (rAR) (Rattus norvegicus)
# Construct: The rat lens homogenate was prepared according to the method of Hayman and Kinoshita with some modifications; from tissue; host or cells: lenses of Sprague-Dawley rats (homogenate supernatant)
# test: Rat lens aldose reductase (rAR) inhibition, DL-glyceraldehyde substrate, NADPH decrease at 340 nm
# Assay type: biochemical
# test-conditions: Table 2; 10 µg/mL
reported-metric: inhibition at 10 µg/mL

{"columns": ["molecule", "inhibition at 10 µg/mL"],
 "data": [
  ["O=c1cc(-c2ccc(O)cc2)oc2c([C@@H]3O[C@H](CO)[C@@H](O)[C@H](O)[C@H]3O)c(O)cc(O)c12 [Compound 4, vitexin]", "48.5%"]
]}

Batch of 5 molecules: report inhibition at 10 µg/mL for each.
1. N[C@@H](Cc1c[nH]c2ccccc12)C(=O)O [Compound 1, tryptophan]
2. COc1cc(C=CC(=O)OC2OC(CO)C(O)C(O)C2O)ccc1O [Compound 9, 1-O-feruloyl-D-glucoside]
3. O=c1cc(-c2ccc(O)c(O)c2)oc2cc(O[C@@H]3O[C@H](CO)[C@@H](O)[C@H](O)[C@H]3O)cc(O)c12 [Compound 6, luteolin-7-O-glucoside]
4. O=C(C=Cc1ccc(O)c(O)c1)OC1OC(CO)C(O)C(O)C1O [Compound 10, 1-O-caffeoyl-D-glucoside]
5. O=c1cc(-c2ccc(O)cc2)oc2cc(O)c([C@@H]3O[C@H](CO)[C@@H](O)[C@H](O)[C@H]3O)c(O)c12 [Compound 5, isovitexin]

Reply text:
["20%", "4.06%", "76.2%", "73.2%", "76.6%"]

---

# test: ABTS^+ radical assay (antioxidant)
# test-conditions: Table 5; 8.33 µg/mL
Where Inhibition (%) of ABTS^+ equals or exceeds 60%, the correct label is Criterion met; where it does not, the label is Criterion not met.

{"columns": ["compound", "label-class"],
 "data": [
  ["O=c1cc(-c2ccc(O)c(O)c2)oc2cc(O[C@@H]3O[C@H](CO)[C@@H](O)[C@H](O)[C@H]3O)cc(O)c12 [Compound 6, luteolin-7-O-glucoside]", "Criterion not met"]
]}

Inquiry: Given the entry COc1cc(C=CC(=O)OC2OC(CO)C(O)C(O)C2O)ccc1O [Compound 9, 1-O-feruloyl-D-glucoside] , answer whether its Inhibition (%) of ABTS^+ meets or surpasses 60%.
Reply text: Criterion not met

Inquiry: Decide: is the reported value of Inhibition (%) of ABTS^+ for C[C@@H]1O[C@@H](OC[C@H]2O[C@@H](Oc3cc(O)c4c(=O)cc(-c5ccc(O)c(O)c5)oc4c3)[C@H](O)[C@@H](O)[C@@H]2O)[C@H](O)[C@H](O)[C@H]1O [Compound 7, luteolin-7-O-rutinoside] equal to or greater than 60%?
Reply text: Criterion not met

Inquiry: Kindly determine if Inhibition (%) of ABTS^+ recorded for O=C(C=Cc1ccc(O)c(O)c1)OC1OC(CO)C(O)C(O)C1O [Compound 10, 1-O-caffeoyl-D-glucoside] is above or exactly 60%.
Reply text: Criterion not met

Inquiry: Is Inhibition (%) of ABTS^+ at least 60%? Consider "O=c1cc(-c2ccc(O)c(O)c2)oc2c([C@@H]3O[C@H](CO)[C@@H](O)[C@H](O)[C@H]3O)c(O)cc(O)c12"
Reply text: Criterion met

---

Hi there, I'd appreciate the recorded Inhibition (%) of ABTS^+ for every entry that follows.
# test: ABTS^+ radical assay (antioxidant)
# test-conditions: Table 5; 16.67 µg/mL

// known answers, use as guide
{"columns": ["compound", "Inhibition (%) of ABTS^+"],
 "data": [
  ["O=c1cc(-c2ccc(O)cc2)oc2c([C@@H]3O[C@H](CO)[C@@H](O)[C@H](O)[C@H]3O)c(O)cc(O)c12 [Compound 4, vitexin]", "46.17 ± 2.65%"],
  ["N[C@@H](Cc1c[nH]c2ccccc12)C(=O)O [Compound 1, tryptophan]", "37.51 ± 2.93%"],
  ["COc1cc(C=CC(=O)OC2OC(CO)C(O)C(O)C2O)ccc1O [Compound 9, 1-O-feruloyl-D-glucoside]", "59.10 ± 2.55%"],
  ["C[C@@H]1O[C@@H](OC[C@H]2O[C@@H](Oc3cc(O)c4c(=O)cc(-c5ccc(O)c(O)c5)oc4c3)[C@H](O)[C@@H](O)[C@@H]2O)[C@H](O)[C@H](O)[C@H]1O [Compound 7, luteolin-7-O-rutinoside]", "79.82 ± 0.67%"]
]}

Inquiry: Query (compound): O=c1cc(-c2ccc(O)cc2)oc2cc(O)c([C@@H]3O[C@H](CO)[C@@H](O)[C@H](O)[C@H]3O)c(O)c12 [Compound 5, isovitexin] ; field requested: Inhibition (%) of ABTS^+
Reply text: 44.40 ± 4.91%

---

Provide the reported Inhibition (%) of ABTS^+ of each item.
# test: ABTS^+ radical assay (antioxidant)
# test-conditions: Table 5; 3.33 µg/mL
Answers are plain numbers, in %.

Below, each entry is followed by its recorded Inhibition (%) of ABTS^+ result.
{"columns": ["compound", "Inhibition (%) of ABTS^+"],
 "data": [
  ["O=c1cc(-c2ccc(O)c(O)c2)oc2cc(O)c([C@@H]3O[C@H](CO)[C@@H](O)[C@H](O)[C@H]3O)c(O)c12", 31.69],
  ["O=C(/C=C/c1ccc(O)c(O)c1)O[C@H](Cc1ccc(O)c(O)c1)C(=O)O", 23.61],
  ["C[C@@H]1O[C@@H](OC[C@H]2O[C@@H](Oc3cc(O)c4c(=O)cc(-c5ccc(O)c(O)c5)oc4c3)[C@H](O)[C@@H](O)[C@@H]2O)[C@H](O)[C@H](O)[C@H]1O [Compound 7, luteolin-7-O-rutinoside]", 21.44],
  ["O=c1cc(-c2ccc(O)c(O)c2)oc2c([C@@H]3O[C@H](CO)[C@@H](O)[C@H](O)[C@H]3O)c(O)cc(O)c12", 31.76],
  ["O=C(C=Cc1ccc(O)c(O)c1)OC1OC(CO)C(O)C(O)C1O [Compound 10, 1-O-caffeoyl-D-glucoside]", 29.84]
]}

Give measured Inhibition (%) of ABTS^+ for every item shown.
1. COc1cc(C=CC(=O)OC2OC(CO)C(O)C(O)C2O)ccc1O [Compound 9, 1-O-feruloyl-D-glucoside]
2. O=c1cc(-c2ccc(O)c(O)c2)oc2cc(O[C@@H]3O[C@H](CO)[C@@H](O)[C@H](O)[C@H]3O)cc(O)c12 [Compound 6, luteolin-7-O-glucoside]

Reply text:
1: 13.51; 2: 22.66

---

Please respond with reported pIC50 for every item in the list.
# test: ABTS^+ radical assay (antioxidant)
# test-conditions: Table 5
Numbers only, as −log10 of the molar value.

{"columns": ["molecule", "pIC50"],
 "data": [
  ["O=C(/C=C/c1ccc(O)c(O)c1)O[C@H](Cc1ccc(O)c(O)c1)C(=O)O", 4.72],
  ["O=c1cc(-c2ccc(O)c(O)c2)oc2c([C@@H]3O[C@H](CO)[C@@H](O)[C@H](O)[C@H]3O)c(O)cc(O)c12", 4.90],
  ["O=c1cc(-c2ccc(O)c(O)c2)oc2cc(O)c([C@@H]3O[C@H](CO)[C@@H](O)[C@H](O)[C@H]3O)c(O)c12", 4.84],
  ["COc1cc(C=CC(=O)OC2OC(CO)C(O)C(O)C2O)ccc1O [Compound 9, 1-O-feruloyl-D-glucoside]", 4.43],
  ["O=c1cc(-c2ccc(O)c(O)c2)oc2cc(O[C@@H]3O[C@H](CO)[C@@H](O)[C@H](O)[C@H]3O)cc(O)c12 [Compound 6, luteolin-7-O-glucoside]", 4.75],
  ["C[C@@H]1O[C@@H](OC[C@H]2O[C@@H](Oc3cc(O)c4c(=O)cc(-c5ccc(O)c(O)c5)oc4c3)[C@H](O)[C@@H](O)[C@@H]2O)[C@H](O)[C@H](O)[C@H]1O [Compound 7, luteolin-7-O-rutinoside]", 4.80]
]}

Inquiry: Bench note: what pIC50 did O=C(C=Cc1ccc(O)c(O)c1)OC1OC(CO)C(O)C(O)C1O [Compound 10, 1-O-caffeoyl-D-glucoside] show?
Reply text: 4.63

---

I'd appreciate it if you could supply inhibition at 1 µg/mL values for the items below.
# experimental-target: rat lens aldose reductase (rAR) (Rattus norvegicus, UniProt P07943)
# Construct: The rat lens homogenate was prepared according to the method of Hayman and Kinoshita with some modifications; from tissue; host or cells: lenses of Sprague-Dawley rats (homogenate supernatant)
# test: Rat lens aldose reductase (rAR) inhibition, DL-glyceraldehyde substrate, NADPH decrease at 340 nm
# Assay type: biochemical
# test-conditions: Table 2; 1 µg/mL; read-out: Inhibition (%) of rAR
Param answer (str): number followed by unit.

{"columns": ["compound", "inhibition at 1 µg/mL"],
 "data": [
  ["O=c1c(O)c(-c2ccc(O)c(O)c2)oc2cc(O)cc(O)c12 [Quercetin, quercetin, reference compound]", "48.6%"],
  ["O=c1cc(-c2ccc(O)c(O)c2)oc2cc(O[C@@H]3O[C@H](CO)[C@@H](O)[C@H](O)[C@H]3O)cc(O)c12 [Compound 6, luteolin-7-O-glucoside]", "19.1%"],
  ["O=c1cc(-c2ccc(O)c(O)c2)oc2c([C@@H]3O[C@H](CO)[C@@H](O)[C@H](O)[C@H]3O)c(O)cc(O)c12 [Compound 2, orientin]", "64.6%"],
  ["O=C(/C=C/c1ccc(O)c(O)c1)O[C@H](Cc1ccc(O)c(O)c1)C(=O)O [Compound 8, rosmarinic acid]", "62.8%"]
]}

Please give inhibition at 1 µg/mL, item by item, for the list that follows.
1. O=c1cc(-c2ccc(O)cc2)oc2cc(O)c([C@@H]3O[C@H](CO)[C@@H](O)[C@H](O)[C@H]3O)c(O)c12 [Compound 5, isovitexin]
2. O=c1cc(-c2ccc(O)c(O)c2)oc2cc(O)c([C@@H]3O[C@H](CO)[C@@H](O)[C@H](O)[C@H]3O)c(O)c12 [Compound 3, isoorientin]
3. C[C@@H]1O[C@@H](OC[C@H]2O[C@@H](Oc3cc(O)c4c(=O)cc(-c5ccc(O)c(O)c5)oc4c3)[C@H](O)[C@@H](O)[C@@H]2O)[C@H](O)[C@H](O)[C@H]1O [Compound 7, luteolin-7-O-rutinoside]

Reply text:
23.3%
57.6%
40.3%
